biological target: EcArgE (Escherichia coli, UniProt P23908); construct: The open reading frame (ORF) of the full-length ArgE protein from E. coli was amplified; made in house; host or cells: E. coli; assay: Ninhydrin-based ArgE enzyme assay (discontinuous, 570 nm); format: biochemical; conditions: 100 μM inhibitor, ninhydrin assay, substrate 3
Sequence (P23908 whole entry): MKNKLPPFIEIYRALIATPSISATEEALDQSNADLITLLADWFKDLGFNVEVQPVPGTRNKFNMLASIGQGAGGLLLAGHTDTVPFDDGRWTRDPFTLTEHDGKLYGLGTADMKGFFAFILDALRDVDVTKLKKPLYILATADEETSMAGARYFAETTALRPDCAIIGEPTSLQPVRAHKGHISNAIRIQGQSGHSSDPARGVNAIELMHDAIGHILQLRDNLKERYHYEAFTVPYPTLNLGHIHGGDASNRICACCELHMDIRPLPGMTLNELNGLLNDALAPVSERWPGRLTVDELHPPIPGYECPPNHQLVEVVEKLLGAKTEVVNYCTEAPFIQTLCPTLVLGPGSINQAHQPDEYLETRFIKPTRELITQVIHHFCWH
Property: inhibition at 100 µM; scope: individual compounds
Reply with just the number (in %).

CCN(CC)c1ccc(C(=O)O)cc1 :: 53.4
OB(O)c1cccc(Cl)c1 :: 19.7

Prompt: What inhibition at 100 µM value was documented for this compound, CC(=O)c1ccc(B(O)O)cc1 ?
Response: 15.8
